Item-by-item account of TGI
system: RXF 393 renal; assay: NCI tumour cell line growth inhibition, 48 h
Report as a plain number; the unit µM is understood.

Here's what some known entries look like.
compound=COC(=O)NNC(c1ccc(Cl)cc1)c1ccc(Cl)cc1 unittext=µM val=23.7
compound="Clc1cccc(N2CCN(CCCN3CCc4c([nH]c5ccccc45)C3c3cccnc3)CC2)c1 (stereo unspecified)" unittext=µM val=31
compound="CCC(COC(=O)CC[C@@H](NC(=O)C(C)NC(=O)C(C)OC1C(O)C(CO)OC(OCc2ccccc2)C1NC(C)=O)C(N)=O)NC1c2ccccc2Nc2cccc([N+](=O)[O-])c21 (stereo partly specified)" unittext=µM val=84.6
compound="OCC(CCc1ccccc1I)C1=CCC2(CC1)OCCO2 (stereo unspecified)" unittext=µM val=34.9
compound="CC1CN(S(=O)(=O)c2oc(-c3ccc(Cl)cc3)nc2C#N)CC(C)O1 (stereo unspecified)" unittext=µM val=3.15

Considering Cc1ccc(S(=O)(=O)[C@@H](Cl)[C@H]2N=C(Cl)NN=C2c2ccccc2)cc1 , its TGI with RXF 393 renal was recorded as 37.3

Considering COc1ccc(Nc2nc3ccccc3c3occc23)cc1 , its TGI with RXF 393 renal was recorded as 19.1

Considering COc1ccc(-c2cc(C(=O)Nc3cc(C(F)(F)F)cc(C(F)(F)F)c3)c3ccccc3n2)cc1 , its TGI with RXF 393 renal was recorded as 21

Considering CCCc1c(C(=O)OCC)[nH]c(-c2ccc(-c3[nH]c(C(=O)OCC)c(CCC)c3C(=O)OCC)s2)c1C(=O)OCC , its TGI with RXF 393 renal was recorded as 28.5

====

Item-by-item account of TGI
system: MALME-3M melanoma; experiment: NCI tumour cell line growth inhibition, 48 h

Here's what some known entries look like.
compound=CCOC(=O)NNC(=O)NCc1ccccc1CNC(=O)NNC(=O)OCC val="> 100 µM"
compound=O=S(=O)(O)c1cccc2cccc(N=Nc3c(O)ccc4ccccc34)c12 val="> 100 µM"
compound=Nc1nccc(NCC2(CO)CCC2)n1 val="> 100 µM"

TGI in this record for O=c1nc(-c2ccccc2)cc(CC(O)c2ccc(Cl)c(Cl)c2)[nH]1 (stereo not given) : > 100 µM

TGI in this record for O=C(Nc1ccc(F)cc1F)c1cc(Cl)ccc1O : 4.76 µM

TGI in this record for O=C(/C=C/c1ccc(C(F)(F)F)cc1)Nc1ccc(C=C2c3ccccc3C(=O)c3ccccc32)cc1 : > 100 µM

TGI in this record for NNc1cnn(-c2ccccc2)c(=O)c1Cl : > 100 µM

TGI in this record for C[N+](C)(C)C=Nc1cccc2c1CCCC2 : > 100 µM

TGI in this record for Cc1c(C(=O)/C=C/C=C/c2ccccc2)[n+](=O)c2ccccc2n1[O-] : 66.8 µM

TGI in this record for CCCC1C(=O)Nc2cccc3ncn(c23)C1=O (stereo not given) : > 100 µM

TGI in this record for CCC(C)Oc1nc2c(c(=O)n(C)c(=O)n2C)n1C (stereo not given) : > 100 µM

TGI in this record for Cc1nnc2n(c1=O)CCN2C : > 100 µM

TGI in this record for Cc1ccnc2nc(N)ccc12 : > 100 µM

TGI in this record for CN(Cc1ccc(C(F)(F)F)cc1)CC(O)C(=O)Nc1ccc(Cl)cc1 (stereo not given) : 2.81 µM

TGI in this record for NC(=O)c1cc(N(CCO)CCO)c([N+](=O)[O-])cc1[N+](=O)[O-] : > 100 µM

TGI in this record for CC1CN(S(=O)(=O)c2oc(-c3ccc(Cl)cc3)nc2C#N)CC(C)O1 (stereo not given) : 2.96 µM

TGI in this record for CCCCCCCC(=O)OCCCC1[C@]2(C)CC[C@@]3(C)C([C@H](C)CCC=C(C)C)CC[C@]3(C)C2CC[C@]12OC2(C)C (stereo not given in full) : > 100 µM

TGI in this record for CCOC(=O)c1cc2c(OCc3ccccc3)c(OC)cc3c2c(n1)N(c1ccc(OC)cc1)C(C)C3 (stereo not given) : > 50 µM

TGI in this record for CSc1ncc(Br)c(Sc2nc(N)nc3nc[nH]c23)n1 : 18.3 µM

This collection of values is drawn from PubChem BioAssay (NCI).
